- assay_remarks: Intrinsic clearance in hepatocytes isolated from chimeric mouse transplanted with rat hepatocytes assessed as per million cells at 10 uM after 2 hrs by LC/MS/MS analysis
- Assay type: ADME, cell-based, Hepatocyte
- stated_conditions: read-out: CLH
measured_attribute: hepatocyte CLint at 10 µM (µL/min/1e6 cells)
Give bare numbers, in µL/min/1e6 cells.

Please report the measured hepatocyte CLint at 10 µM for `CC(C)n1nc(-c2cnc(N)nc2-c2ccccc2)ccc1=O` 5

----------
- assay_remarks: Clearance in rat at 3.2 mg/kg, po
- Type: ADME, organism-based
- Design: dose 3.2 mg/kg, route oral
- stated_conditions: in vivo
measured_attribute: CL/F
Kindly report the value followed by its unit.

Please report the measured CL/F for `CC(C)n1nc(-c2cnc(N)nc2-c2ccccc2)ccc1=O` 29.8 mL/min/kg
